# pIC50 per entry for Peroxisome proliferator-activated receptor delta (Homo sapiens)
Remember, pIC50 is on a log scale: it is -log10 of the molar concentration.

Worked examples follow.
INSERT INTO measurements (compound, recorded_measurement) VALUES
  ('CCCCN(c1cccc(-c2ccc(OC)cc2)c1C)S(=O)(=O)c1ccc(OC(C)C(=O)O)c(C)c1C (configuration not stated)', 7.00),
  ('CCCCN(c1cc(-c2ccc(Cl)cc2)c(F)cc1C)S(=O)(=O)c1ccc(OC(C)C(=O)O)c(C)c1C (configuration not stated)', 5.30),
  ('CCCCC(Oc1ccc(S(=O)(=O)N(CCCC)c2cccc(-c3ccc(Cl)cc3)c2C)c(C)c1C)C(=O)O (configuration not stated)', 6.80),
  ('CCCCN(c1cc(-c2ccc(Cl)cc2)c(F)cc1F)S(=O)(=O)c1ccc(OC(C)C(=O)O)c(C)c1C (configuration not stated)', 5.50),
  ('CCCCN(c1cc(-c2ccc(Cl)cc2)cc(C(F)(F)F)c1)S(=O)(=O)c1ccc(OC(C)C(=O)O)c(C)c1C (configuration not stated)', 7.20);

// query Which measured pIC50 value corresponds to CCCCN(c1cccc(-c2ccc(Cl)cc2)c1C)S(=O)(=O)c1ccc(OC(C)C(=O)O)c(C)c1C (configuration not stated) ?
// result 7.30

// query Same thing, different compound: CCCCN(c1cccc(-c2ccc(C)cc2)c1C)S(=O)(=O)c1ccc(OC(C)C(=O)O)c(C)c1C (configuration not stated)
// result 7.10

// query // same read-out, input: CCCCN(c1cccc(-c2ccc(Cl)cc2)c1C)S(=O)(=O)c1ccc(OC(C)C(=O)O)c(Cl)c1Cl (configuration not stated)
// result 7.10

// query Would you kindly repeat that for CCCCN(c1cccc(-c2ccc(OC(F)(F)F)cc2)c1Cl)S(=O)(=O)c1ccc(OC(C)C(=O)O)c(C)c1C (configuration not stated) ?
// result 7.80

// query Continue with CCCCN(c1c(C)cc(C)c(-c2ccc(Cl)cc2)c1C)S(=O)(=O)c1ccc(OC(C)C(=O)O)c(C)c1C (configuration not stated)
// result 5.00

// query Repeat with CCCCN(c1cccc(-c2ccc(Cl)cc2)c1C)S(=O)(=O)c1ccc(OC(C)C(=O)O)c(F)c1F (configuration not stated)
// result 6.20

// query // query: Cc1c(-c2ccc(Cl)cc2)cccc1N(CC1CCC1)S(=O)(=O)c1ccc(OC(C)C(=O)O)c(C)c1C (configuration not stated)
// result 6.00

// query // same read-out, input: CCCCN(c1cccc(-c2ccc(Cl)c(Cl)c2)c1C)S(=O)(=O)c1ccc(OC(C)C(=O)O)c(C)c1C (configuration not stated)
// result 6.90

// query Now try CCCCN(c1cccc(-c2ccccc2Cl)c1C)S(=O)(=O)c1ccc(OC(C)C(=O)O)c(C)c1C (configuration not stated) .
// result 5.80

// query What do you have for CCCCN(c1cccc(-c2ccc(Cl)cc2)c1C)S(=O)(=O)c1ccc(OC(CC)C(=O)O)c(C)c1C (configuration not stated) ?
// result 7.20

// query Same question, CCCCN(c1cccc(-c2ccc(OC(F)(F)F)cc2)c1C)S(=O)(=O)c1ccc(OC(C)C(=O)O)c(C)c1C (configuration not stated) this time
// result 7.10

// query Input CCCCN(c1cccc(-c2ccc(Cl)cc2)c1OC)S(=O)(=O)c1ccc(OC(C)C(=O)O)c(C)c1C (configuration not stated)
// result 7.60
